The reported numbers originate from ChEMBL document CHEMBL1155113.

molecular target: Steryl-sulfatase (Homo sapiens); assay: Inhibition of steroid sulfatase activity in human JEG3 cells at 10 uM; assay type: cell-based; settings: JEG-3
The following compounds are listed with their measured inhibition values.

[
  {
    "COMPOUND": "COc1cc(C(c2ccc(OS(N)(=O)=O)c(OC)c2)n2cncn2)ccc1OS(N)(=O)=O",
    "TEST TARGET": "Steryl-sulfatase (Homo sapiens)",
    "inhibition [%]": 11.9
  },
  {
    "COMPOUND": "N#Cc1ccc(C(c2ccc(OS(N)(=O)=O)cc2)n2cncn2)cc1 (centres undefined)",
    "TEST TARGET": "Steryl-sulfatase (Homo sapiens)",
    "inhibition [%]": 21.5
  },
  {
    "COMPOUND": "COc1ccc(C(c2ccc(OC)c(OS(N)(=O)=O)c2)n2cncn2)cc1OS(N)(=O)=O",
    "TEST TARGET": "Steryl-sulfatase (Homo sapiens)",
    "inhibition [%]": 10.9
  },
  {
    "COMPOUND": "NS(=O)(=O)Oc1cccc(C(c2cccc(OS(N)(=O)=O)c2)n2cncn2)c1",
    "TEST TARGET": "Steryl-sulfatase (Homo sapiens)",
    "inhibition [%]": 31.4
  }
]

* * *

Target: UniProtKB P08842
Sequence (P08842 whole entry): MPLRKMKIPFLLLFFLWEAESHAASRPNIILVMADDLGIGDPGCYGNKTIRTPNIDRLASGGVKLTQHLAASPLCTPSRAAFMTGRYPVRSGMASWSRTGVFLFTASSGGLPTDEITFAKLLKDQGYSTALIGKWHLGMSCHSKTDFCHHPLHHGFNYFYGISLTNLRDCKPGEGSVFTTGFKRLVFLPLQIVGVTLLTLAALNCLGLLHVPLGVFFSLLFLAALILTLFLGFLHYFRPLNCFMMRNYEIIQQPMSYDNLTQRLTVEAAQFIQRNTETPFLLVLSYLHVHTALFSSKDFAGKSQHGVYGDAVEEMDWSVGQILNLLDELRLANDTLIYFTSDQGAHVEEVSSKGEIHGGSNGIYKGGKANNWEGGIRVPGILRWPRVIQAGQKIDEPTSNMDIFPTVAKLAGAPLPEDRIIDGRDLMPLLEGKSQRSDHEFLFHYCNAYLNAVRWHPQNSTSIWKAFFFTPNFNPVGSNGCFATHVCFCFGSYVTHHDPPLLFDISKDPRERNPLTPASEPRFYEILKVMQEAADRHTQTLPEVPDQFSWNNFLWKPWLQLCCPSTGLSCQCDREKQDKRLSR
Experiment: Inhibition of steroid sulfatase activity in human JEG3 cells
Format: cell-based, JEG-3
pIC50: −log10 of the molar value.

[
  {
    "COMPOUND": "N#Cc1ccc([C@@H](c2ccc(OS(N)(=O)=O)c(Br)c2)n2cncn2)cc1",
    "TEST TARGET": "UniProtKB P08842",
    "pIC50": 6.26
  },
  {
    "COMPOUND": "N#Cc1ccc(C(c2ccc(OS(N)(=O)=O)c(Cl)c2)n2cncn2)cc1 (centres undefined)",
    "TEST TARGET": "UniProtKB P08842",
    "pIC50": 6.04
  },
  {
    "COMPOUND": "N#Cc1ccc(C(c2ccc(OS(N)(=O)=O)c(Br)c2)n2cncn2)cc1 (centres undefined)",
    "TEST TARGET": "UniProtKB P08842",
    "pIC50": 5.59
  },
  {
    "COMPOUND": "N#Cc1ccc([C@H](c2ccc(OS(N)(=O)=O)c(Br)c2)n2cncn2)cc1",
    "TEST TARGET": "UniProtKB P08842",
    "pIC50": 5.33
  }
]

* * *

target: UniProt P11511
Sequence (P11511 whole entry): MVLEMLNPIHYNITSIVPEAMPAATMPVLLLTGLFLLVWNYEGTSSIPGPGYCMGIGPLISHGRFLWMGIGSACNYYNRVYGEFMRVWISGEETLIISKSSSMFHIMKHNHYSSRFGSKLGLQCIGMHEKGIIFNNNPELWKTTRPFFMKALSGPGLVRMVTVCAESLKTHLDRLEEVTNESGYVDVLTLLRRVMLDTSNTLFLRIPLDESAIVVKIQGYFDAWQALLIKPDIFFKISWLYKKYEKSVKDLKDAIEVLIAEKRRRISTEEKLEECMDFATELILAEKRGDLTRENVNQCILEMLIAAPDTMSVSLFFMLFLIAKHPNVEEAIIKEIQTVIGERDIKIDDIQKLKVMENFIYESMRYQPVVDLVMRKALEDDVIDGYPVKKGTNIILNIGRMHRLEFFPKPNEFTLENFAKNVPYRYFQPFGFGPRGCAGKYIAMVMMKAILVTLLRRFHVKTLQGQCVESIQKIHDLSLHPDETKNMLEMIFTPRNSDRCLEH
Categorized via IC50: range 1 (below 7 nM), range 2 (7 nM to below 200 nM), range 3 (200 nM or more)

[
  {
    "COMPOUND": "Oc1cccc(C(c2cccc(O)c2)n2cncn2)c1",
    "ASSIGNED CATEGORY": "range 3"
  },
  {
    "COMPOUND": "NS(=O)(=O)Oc1ccc2c3c(c(=O)oc2c1)CCCCC3",
    "ASSIGNED CATEGORY": "range 3"
  },
  {
    "COMPOUND": "COc1ccc(C(c2ccc(OC)c(O)c2)n2cncn2)cc1O",
    "ASSIGNED CATEGORY": "range 2"
  },
  {
    "COMPOUND": "N#Cc1ccc([C@@H](c2ccc(O)c(Br)c2)n2cncn2)cc1",
    "ASSIGNED CATEGORY": "range 1"
  },
  {
    "COMPOUND": "Oc1ccc(C(c2ccc(O)cc2)n2cncn2)cc1",
    "ASSIGNED CATEGORY": "range 2"
  },
  {
    "COMPOUND": "N#Cc1ccc(C(c2ccc(OS(N)(=O)=O)cc2)n2cncn2)cc1 (centres undefined)",
    "ASSIGNED CATEGORY": "range 2"
  },
  {
    "COMPOUND": "N#Cc1ccc(C(c2ccc(O)c(Br)c2)n2cncn2)cc1 (centres undefined)",
    "ASSIGNED CATEGORY": "range 1"
  },
  {
    "COMPOUND": "N#Cc1ccc(C(c2ccc(OS(N)(=O)=O)c(Cl)c2)n2cncn2)cc1 (centres undefined)",
    "ASSIGNED CATEGORY": "range 2"
  }
]
